target: c-Myc template DNA (c-myc quadruplex); assay: Quadruplex binding / stop assay (Taq polymerase arrest, capillary electrophoresis); settings: read-out: S DATA; Table 1D, stop assay data
READOUT_KIND: IC50 (nM)
State the answer as a number, implicitly in nM.

Recorded results for 8 compounds are shown here.
CN1CCCC1CCNC(=O)c1cn2c3c(c(NCc4ccco4)c(F)cc3c1=O)Oc1cc3ccccc3cc1-2 (centres unmarked); 4200
CN1CCN(CCCNc2ccc3c(=O)c(C(=O)NCCN4CCCC4)cn4c3c2Oc2cc3ccccc3cc2-4)CC1; 750
O=C(NCCCN1CCOCC1)c1cn2c3c(c(N4CC5CCCNC5C4)c(F)cc3c1=O)Oc1cc3ccccc3cc1-2 (centres unmarked); 375
CCN(CC)CCCCNC(=O)c1cn2c3c(c(N4CCC(c5cnccn5)C4)c(F)cc3c1=O)Oc1ccc(Cl)cc1-2 (centres unmarked); 4000
CN1CCCC1CCNC(=O)c1cn2c3c(c(N4CCC(C(N)=O)CC4)c(F)cc3c1=O)Oc1cc3ccccc3cc1-2 (centres unmarked); 1750
COc1ccc(CCNc2c(F)cc3c(=O)c(C(=O)NCCC4CCCN4C)cn4c3c2Oc2cc3ccccc3cc2-4)cc1 (centres unmarked); 1750
CN1CCCC1CCNC(=O)c1cn2c3c(c(N4CCC(c5cnccn5)C4)c(F)cc3c1=O)Oc1cc3ccccc3cc1-2 (centres unmarked); 780
O=C(NCCN1CCCC1)c1cn2c3c(c(NCCCN4CCOCC4)ccc3c1=O)Oc1cc3ccccc3cc1-2; 1750

Would you kindly look at the next entry?
Challenge: // fetch IC50 given entry O=C(O)c1cn2c3c(c(NCC4CCCO4)c(F)cc3c1=O)Oc1cc3ccccc3cc1-2 (centres unmarked)
Response given: 8500

---

target: c-Myc template DNA (c-myc quadruplex); test: Quadruplex binding / stop assay (Taq polymerase arrest, capillary electrophoresis); settings: read-out: S DATA; Table 1D, stop assay data
Attribute: IC50

# example entries with known answers
CCOC(=O)c1cn2c3c(c(N4CCC(c5cnccn5)C4)c(F)cc3c1=O)Oc1ccc(C#N)cc1-2 (centres unmarked) [compound 1775]; > 15000 nM
CCC(=O)N1CCN(c2c(F)cc3c(=O)c(C(=O)NCCN4CCCC4)cn4c3c2Oc2cc(Cl)ccc2-4)CC1 [compound 1822]; 10000 nM
CC(O)CNc1c(F)cc2c(=O)c(C(=O)NCCC3CCCN3C)cn3c2c1Oc1cc2ccccc2cc1-3 (centres unmarked) [compound 1656]; 1750 nM
CC1(C)CC(NC(=O)c2cn3c4c(c(N5CCC(N)C5)ccc4c2=O)Oc2cc4ccccc4cc2-3)CC(C)(C)N1 (centres unmarked) [compound 1558]; 375 nM
CN1CCN(CCCNc2ccc3c(=O)c(C(=O)NCCCN4CCOCC4)cn4c3c2Oc2cc3ccccc3cc2-4)CC1 [compound 1554]; 1750 nM
CC(=O)N1CCN(c2c(F)cc3c(=O)c(C(=O)NCCN4CCCC4)cn4c3c2Oc2cc(Cl)ccc2-4)CC1 [compound 1812]; 3200 nM
CN1CCCC1CCNC(=O)c1cn2c3c(c(NCCN4CCCC4)ccc3c1=O)Oc1cc3ccccc3cc1-2 (centres unmarked) [compound 1517]; 750 nM
CN1CCCC1CCNC(=O)c1cn2c3c(c(N4CCC(NC(=O)OC(C)(C)C)CC4)c(F)cc3c1=O)Oc1cc3ccccc3cc1-2 (centres unmarked) [compound 1498]; 1750 nM

Challenge: Please indicate recorded IC50 of O=C(NCCN1CCCC1)c1cn2c3c(c(N4CCC(c5cnccn5)C4)c(F)cc3c1=O)Oc1cc(Cl)ccc1-2 (centres unmarked) [compound 1811] measured with c-Myc template DNA (c-myc quadruplex).
Response given: 2800 nM

Challenge: Recall the reported IC50 of COc1ccccc1CCNc1c(F)cc2c(=O)c(C(=O)NCCC3CCCN3C)cn3c2c1Oc1cc2ccccc2cc1-3 (centres unmarked) [compound 1684] on c-Myc template DNA (c-myc quadruplex) and write it down.
Response given: > 15000 nM

Challenge: Provide measured IC50 on c-Myc template DNA (c-myc quadruplex) for CCN(CC)CCCC(C)NC(=O)c1cn2c3c(c(N4CCC(c5cnccn5)C4)ccc3c1=O)Oc1ccccc1-2 (centres unmarked) [compound 1721] please.
Response given: 3000 nM

Challenge: Report IC50 under test system c-Myc template DNA (c-myc quadruplex) for CN1CCCC1CCNC(=O)c1cn2c3c(c(NCC4(O)CCCCC4)c(F)cc3c1=O)Oc1cc3ccccc3cc1-2 (centres unmarked) [compound 1665] .
Response given: 750 nM

Challenge: Please look at CCOC(CCCNc1c(F)cc2c(=O)c(C(=O)NCCC3CCCN3C)cn3c2c1Oc1cc2ccccc2cc1-3)OCC (centres unmarked) [compound 1674] and tell me its recorded IC50 on c-Myc template DNA (c-myc quadruplex).
Response given: 750 nM

Challenge: State, for c-Myc template DNA (c-myc quadruplex), measured IC50 of the compound listed here: N=C(N)NCC1CCCC(CNC(=O)c2cn3c4c(c(N5CCC(N)C5)c(F)cc4c2=O)Oc2cc4ccccc4cc2-3)C1 (centres unmarked) [compound 1649]
Response given: 370 nM
